assay_name: E. coli growth modulation, two-sided OD650, primary screen, E. coli filamentation project, strain DRC41, 24 h (AID 1093);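 note: MC1000 strain lacking acrAB efflux and sulA so SOS filamentation is blocked; test concentration not given here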
measurement_conditions: OD650, 24 h, higher = more signal, called active from +8 up or from −8 down
We use 1 as the dividing line for z-score: on or above the line is MET, below is NOT MET.

Solved cases below.
Entry COC(=O)C(CC#Cc1ccc2c(c1)[C@]1(C(=O)N2)[C@H](C(=O)NC[C@H](O)c2ccccc2)[C@H]2C(=O)O[C@H](c3ccccc3)[C@H](c3ccccc3)N2[C@@H]1c1ccc(OCCO)cc1)C(=O)OC : is its z-score no less than 1?
NOT MET

Same for COCCOC(=O)N1C(=O)[C@@]2(c3cc(C#CCC(C(=O)OC)C(=O)OC)ccc31)[C@H](c1ccccc1OCCO)N1[C@H](c3ccccc3)[C@H](c3ccccc3)OC(=O)[C@H]1[C@@H]2C(N)=O
MET

Same for [N-]=[N+]=NCc1ccccc1C[C@]1(C(=O)O)N=C(c2ccc(OCCCO)cc2)O[C@H]1c1ccccc1CN=[N+]=[N-]
NOT MET

Same for COC(=O)C1=CC(CCCO)=CC(C2CC2)N(Cc2sc3ccccc3c2Cl)C=C1C(=O)OC (stereo unspecified)
NOT MET

Same for C=CCC(OC(C)=O)[C@@H]1[C@@H](N(Cc2ccc(-c3cccc(C(F)(F)F)c3)o2)C(=O)c2ccc(C)cc2)c2cc(OCCCO)ccc2N1C(=O)c1ccc(-c2ccccc2)cc1 (stereo partly specified)
MET

Same for CCCCCN1CC=CC23O[C@@H]4/C=C\CCC(C)OC(=O)C4[C@H]2C(=O)N(CCCCCO)[C@@H]3C1=O (stereo partly specified)
MET

Same for CCCCCN1CC=CC23O[C@@H]4/C=C\CCCOC(=O)C4[C@H]2C(=O)N(CCCCCCO)[C@@H]3C1=O (stereo partly specified)
MET

Same for COC(=O)[C@@]1(Cc2ccccc2)[C@H]2c3cc(C(=O)N(C)C)n(Cc4c(-c5ccccc5)noc4C)c3C[C@H]2CN1C(=O)c1ccccc1
NOT MET

More entries:
Entry O=c1cccc(C=Cc2ccccc2)o1 : is its z-score no less than 1?
NOT MET

Same for COc1cc(CO)ccc1OC(C)=O
MET

Same for CCOC(=O)C1=CC[C@@H](c2ccccc2)N(S(=O)(=O)c2ccc(C)cc2)[C@H]1C(=O)OCC
NOT MET

Same for O=C(O)[C@@]1(Cc2ccccc2)N=C(c2ccc(OCCCO)cc2)O[C@H]1c1ccccc1
NOT MET

Same for C=CCOC(=O)[C@@H]1[C@H]2C(=O)O[C@H](c3ccccc3)[C@H](c3ccccc3)N2[C@H](c2ccc(OCCOC(=O)[C@@H]3C[C@@H]4C(=O)NCC(=O)N4[C@@H]3c3cccc(OCCO)c3)cc2)[C@@]12C(=O)Nc1ccc(I)cc12
NOT MET

Same for C#CCN(C(/C=C/c1ccccc1)CO)C(C(=O)O)c1ccccc1 (stereo unspecified)
MET

----------
target_under_test: E3 ubiquitin-protein ligase XIAP (Homo sapiens) (UniProt P98170)
Sequence (P98170 whole entry, looked up): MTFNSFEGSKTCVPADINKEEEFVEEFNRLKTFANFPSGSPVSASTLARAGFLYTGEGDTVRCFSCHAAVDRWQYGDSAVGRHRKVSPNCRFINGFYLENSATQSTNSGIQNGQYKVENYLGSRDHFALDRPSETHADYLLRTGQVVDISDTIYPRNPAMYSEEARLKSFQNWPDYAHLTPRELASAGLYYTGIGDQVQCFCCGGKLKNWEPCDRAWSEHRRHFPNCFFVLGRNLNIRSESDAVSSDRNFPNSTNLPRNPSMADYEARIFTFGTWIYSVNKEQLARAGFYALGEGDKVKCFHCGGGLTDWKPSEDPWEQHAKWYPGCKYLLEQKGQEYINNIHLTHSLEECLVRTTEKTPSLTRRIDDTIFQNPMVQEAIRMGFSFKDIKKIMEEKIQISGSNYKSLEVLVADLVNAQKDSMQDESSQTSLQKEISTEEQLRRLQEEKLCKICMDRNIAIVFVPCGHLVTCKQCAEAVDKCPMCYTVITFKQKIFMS
assay_name: XIAP binders, primary screen, biophysical, small-molecule microarray, fluorescence 635 nm (AID 1181);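 note: score merges 667 nm emission and signal to noise over triplicate slides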
measurement_conditions: small-molecule microarray binding, higher = more signal
Each record here notes measured composite z-score.
Form field (numeric): enter value without unit.

Answered examples (8):
# composite z-score lookup, item C=CCC(OC(C)=O)[C@@H]1[C@@H](N(Cc2ccc(-c3cccc(C(F)(F)F)c3)o2)C(=O)c2ccc(C)cc2)c2cc(OCCCO)ccc2N1C(=O)c1ccc(-c2ccccc2)cc1 (stereo not given in full)
-0.127

Same for Cc1cc(C)cc(N2C(=O)CS(=O)(=O)C2c2cccc([N+](=O)[O-])c2)c1 (stereo not given)
-0.22

Same for COCCOC(=O)N1C(=O)[C@@]2(c3cc(C#CC4=CCCCC4)ccc31)[C@H](C(=O)NC[C@H](O)c1ccccc1)[C@H]1C(=O)O[C@H](c3ccccc3)[C@H](c3ccccc3)N1[C@@H]2c1ccc(O)cc1
-0.02

Same for CC(C)CNC(=O)[C@@]1(c2ccc([N+](=O)[O-])cc2)CC(=O)N(CC23CC4CC(CC(C4)C2)C3)[C@@H]1c1ccc(CO)cc1
-0.193

Same for O=C1C[C@@](C(=O)NC2CC2)(c2ccc([N+](=O)[O-])cc2)[C@@H](c2ccc(CO)cc2)N1CC12CC3CC(CC(C3)C1)C2
0.0975

Same for C=CCNC(=O)[C@H]1[C@@H]2C(=O)O[C@@H](c3ccccc3)[C@@H](c3ccccc3)N2[C@@H](c2ccc(O)cc2)[C@]12C(=O)N(C(=O)OCCOC)c1ccc(C#CCCO)cc12
-0.272

Same for CCCCC(CC)C(O)C1C=CC2C(=O)N(c3ccccc3)C(=O)C2N1Nc1ccccc1 (stereo not given)
0.387

Same for CCOC(=O)C1=CC[C@@H](c2ccccc2Cl)N(S(=O)(=O)c2ccc(C)cc2)C1
-0.0115

More entries:
# composite z-score lookup, item O=C/C=C/c1ccc(Cl)cc1
-0.134

Same for CCOC(=O)C[C@H]1[C@H](OC(=O)c2ccc(-c3ccccc3)cc2)[C@@H](NC(=O)c2ccc3ccccc3c2)c2cc(OCCCO)ccc2N1C(=O)Cc1ccc(OC)cc1
0.144

Same for CC(C)(C)N1CC=CC23O[C@@H]4/C=C\CCCOC(=O)C4[C@H]2C(=O)N(CCO)[C@@H]3C1=O (stereo not given in full)
-0.142

Same for Cc1ccc(S[C@]2(C(=O)NCCN3CCOCC3)CC(=O)N(Cc3cc(C(F)(F)F)cc(C(F)(F)F)c3)[C@@H]2c2ccc(CO)cc2I)cc1
-0.419

Same for COCCOC(=O)N1C(=O)[C@@]2(c3ccccc31)[C@H](C(=O)NC[C@H](O)c1ccccc1)[C@H]1C(=O)O[C@H](c3ccccc3)[C@H](c3ccccc3)N1[C@@H]2c1ccc(OCCO)cc1
-0.156

Same for CN1C(=O)C2C=CC(C(O)c3ccccn3)N(Nc3ccccc3)C2C1=O (stereo not given)
0.742

Same for N[C@@H](Cc1ccccc1)Cn1cc(-c2ccccc2)nn1
-0.377
